# System: panel of cancer cell lines
# test.name: Cell viability (CellTiter-Glo) dose-response across cancer cell line panel;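 also: after 72 h compound incubation with CellTiter-Glo ATP readout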
# Type: cell-based, human
# protocol.conditions: Homo sapiens, NCI-H460, cell line NCI-H460
measured.endpoint: pEC50
Give bare numbers, as −log10 of the molar value.

Param readout= pEC50; system= panel of cancer cell lines; entry= `CC(C)C[C@H](NC(=O)[C@H](Cc1ccccc1)NC(=O)c1cnccn1)B(O)O` ; returns value.
7.07

###

# Tested on: panel of cancer cell lines
# test.name: Cell viability (CellTiter-Glo) dose-response across cancer cell line panel;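 also: after 72 h compound incubation with CellTiter-Glo ATP readout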
# Type: cell-based, human
# protocol.conditions: Homo sapiens, 23132/87
measured.endpoint: EC50 (nM)
Numbers only, in nM.

What value of EC50 has been recorded for this entry: `CC(C)C[C@H](NC(=O)[C@H](Cc1ccccc1)NC(=O)c1cnccn1)B(O)O`
7.39
